The reported measurements were obtained from patent US20060229335A1.

In this section, each of the molecules is paired with its reported IC50.
- assay-target: non-endogenous, constitutively activated version of the human 5-HT2A receptor (human CART 5-HT2A) (Homo sapiens)
- assay: Intracellular IP3 (inositol phosphate) accumulation assay, inverse agonist potency
- test-settings: HEK293 cells transfected with mutated constitutively active 5-HT2A, averages of at least two trials, read-out: 5-HT2A (IC50) IP Accumulation Assay
Numbers only; they are read as nM.

molecule	units-text	recorded-value
Cc1cc(Nc2cccc(-c3c(Br)cnn3C)c2)ccc1Cl [Compound 49]	nM	19
Cn1ncc(Cl)c1-c1cccc(Nc2ccc(OC(F)(F)F)cc2)c1 [Compound 8]	nM	44.6
COc1ccc(Nc2ccc(Cl)cc2)cc1-c1c(Br)cnn1C [Compound 70]	nM	1.77

Request: Determine from records and report IC50 for Cn1ncc(Br)c1-c1cccc(Nc2ccc(C(F)(F)F)cc2)c1 [Compound 44]
Result: 2.99

Request: Determine from records and report IC50 for Cn1ncc(Br)c1-c1cccc(Nc2nc3ccccc3o2)c1 [Compound 57]
Result: 10.6

Request: Determine from records and report IC50 for Cn1ncc(Br)c1-c1cccc(Nc2ccc(S(C)(=O)=O)cc2)c1 [Compound 46]
Result: 113

Request: Determine from records and report IC50 for Cn1ncc(Br)c1-c1cccc(Nc2ccc(Cl)cc2)c1 [Compound 36]
Result: 7
